Hey, just so you know, these numbers are from the supplement of paper PMC11451515.

# Test system: P12-Ichikawa
# assay-name: cell viability relative to DMSO control; higher = less cytotoxic
# condition-set: HPLM + 10% dialyzed FBS; 48 h; 46.1 µM

compound	cell viability (%)
CC1(C)O[C@@H]2C[C@H]3[C@@H]4CCC5=CC(=O)C=C[C@]5(C)[C@H]4[C@@H](O)C[C@]3(C)[C@]2(C(=O)CO)O1	62.9
Cn1c(CNc2ccc(C(=N)N)cc2)nc2cc(C(=O)N(CCC(=O)O)c3ccccn3)ccc21	114
CCOC(=O)\C1=C(/C)N\C2=C(C1C3=CC=C(C=C3)C4=CC=CC=C4)\C(=O)CC(C)(C)C2 (configuration not stated)	103
COc1ccc(-c2ccc3c(N4CCOC[C@@H]4C)nc(N4CCOC[C@@H]4C)nc3n2)cc1CO	6.75
C[C@]1(c2nc3c(C(N)=O)cccc3[nH]2)CCCN1	72.4
CCOC(=O)C/1=C(O)/C(=O)N(CC2=CC=CC=C2)C1	100
N#Cc1c(NC(=O)c2cccc3ccccc23)sc2c1CCCC2	27.4
Cc1cc2c(F)c(Oc3ncnn4cc(OC[C@@H](C)O)c(C)c34)ccc2[nH]1	52
CN1\C(=C(\O)C2=CC=CC=C2[S+]1([O-])=O)C(=O)NC3=NC=C(C)S3	112
CNC(=O)c1ccc(N2C(=S)N(c3ccc(C#N)c(C(F)(F)F)c3)C(=O)C23CCC3)cc1F	102
C[C@@H]1[C@H](O)[C@@H](C)/C=C/C=C/C=C/C=C/C=C/C=C/C=C/[C@H](O[C@@H]2O[C@H](C)[C@@H](O)[C@H](N)[C@@H]2O)C[C@@H]2O[C@](O)(C[C@@H](O)C[C@@H](O)[C@H](O)CC[C@@H](O)C[C@@H](O)CC(=O)O[C@H]1C)C[C@H](O)[C@H]2C(=O)O	118
Cc1cc(C(C)(C)C)c(O)c(C)c1CC1=NCCN1	69.5
Nc1nc(N)c2nc(CNc3ccc(C(=O)NC(CCC(=O)O)C(=O)O)cc3)cnc2n1 (configuration not stated)	29.7
Cn1cnc2c1c(=O)[nH]c(=O)n2C	9.4
CNC[C@H](O)c1ccc(O)c(O)c1	85.8
C[S+]([O-])(=O)C1=CC=C(C=C1)C/2=C(/C(=O)OC2)C3=CC=CC=C3	122
O=C(O)c1ccc2c(c1)nc(Nc1cccc(Cl)c1)c1ccncc12	83.4

====

# Tested on: SEM cells
# assay-name: cell viability relative to DMSO control; higher = less cytotoxic
# condition-set: RPMI 5 mM glucose + 10% dialyzed FBS; 48 h; 1.71 µM
property-name: cell viability (%)

                                test_smiles  units_label  measured_value
0  COCCCN1CCC(NC(=O)c2cc(Cl)c(N)c3c2OCC3)CC1            %             156
1  Cc1c(NC(=O)OC[C@@H]2COCCN2)cn2ncnc(Nc3ccc4c(cnn4Cc4cccc(F)c4)c3)c12            %            99.6
2                    S=P(N1CC1)(N1CC1)N1CC1            %            90.4
3  C[C@@H]\1CC(=O)N\N=C1C2=CC=C(NN=C(C#N)C#N)C=C2            %             100
4  Cc1cn(-c2cc(NC(=O)c3ccc(C)c(Nc4nccc(-c5cccnc5)n4)c3)cc(C(F)(F)F)c2)cn1            %            26.9
